Hey, just so you know, these numbers are from ChEMBL document CHEMBL4616721.

- Assay Target: UniProt:P30542
- Method: Displacement [3H]DPCPX from human adenosine A1 receptor expressed in CHO cell membranes at 1 uM incubated for 60 mins by scintillation counting method relative to control
The entries below are paired with their reported inhibition.
Lab book: enter the figure in %, no units written.

Can you look up the measured inhibition of CCOC(=O)C1=C(C)Nc2nc3ccccc3n2C1c1ccccc1 (racemic) for me? 12

---

- Assay Target: Adenosine receptor A1 (Homo sapiens) (UniProt P30542)
- Sequence (whole entry): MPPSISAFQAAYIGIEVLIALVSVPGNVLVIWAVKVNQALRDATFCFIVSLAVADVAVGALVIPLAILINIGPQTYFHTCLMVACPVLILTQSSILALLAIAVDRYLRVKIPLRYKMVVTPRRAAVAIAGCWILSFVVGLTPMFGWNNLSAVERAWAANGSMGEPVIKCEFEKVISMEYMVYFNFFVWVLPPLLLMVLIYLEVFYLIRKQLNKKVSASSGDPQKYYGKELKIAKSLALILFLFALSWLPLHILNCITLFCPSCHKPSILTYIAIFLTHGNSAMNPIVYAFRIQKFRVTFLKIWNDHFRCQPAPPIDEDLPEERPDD
- Method: Displacement [3H]DPCPX from human adenosine A1 receptor expressed in CHO cell membranes at 1 uM incubated for 60 mins by scintillation counting method relative to control
Param threshold (10%) applies to inhibition; output Yes when value >= threshold, No when value < threshold.

Reference set (3 entries):
- Molecule: "CCOC(=O)C1=C(C)Nc2nc3ccccc3n2C1c1cc[nH]c1 (racemic)"
  Class Name: "Yes"
- Molecule: "CC1=C(C(=O)OC(C)C)C(c2ccon2)n2c(nc3ccccc32)N1 (racemic)"
  Class Name: "No"
- Molecule: "CCOC(=O)C1=C(C)Nc2nc3ccccc3n2C1c1cncs1 (racemic)"
  Class Name: "Yes"

Here is the next item to consider.
Quick check: does `CCOC(=O)C1=C(C)Nc2nc3ccccc3n2C1` have inhibition greater than or equal to 10%? Yes

---

Target sequence: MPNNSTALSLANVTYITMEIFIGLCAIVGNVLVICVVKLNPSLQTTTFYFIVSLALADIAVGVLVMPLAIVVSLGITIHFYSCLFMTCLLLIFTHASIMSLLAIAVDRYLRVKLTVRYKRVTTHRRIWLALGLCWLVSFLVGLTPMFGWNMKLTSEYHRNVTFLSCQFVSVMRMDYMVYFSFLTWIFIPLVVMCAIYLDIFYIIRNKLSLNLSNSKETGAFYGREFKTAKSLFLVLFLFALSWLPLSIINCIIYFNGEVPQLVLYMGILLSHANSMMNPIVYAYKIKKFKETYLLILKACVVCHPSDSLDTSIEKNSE
Readout Label: pKi
API: returns pKi as number; meaning -log10 of concentration in mol/L.

Value lookup for pKi; key = CCOC(=O)C1=C(C)Nc2nc3ccccc3n2C1c1cnco1 (racemic) 6.38

---

Listing of entries alongside the reported inhibition.
- Assay Target: Adenosine receptor A3 (Homo sapiens)
- Sequence (whole entry): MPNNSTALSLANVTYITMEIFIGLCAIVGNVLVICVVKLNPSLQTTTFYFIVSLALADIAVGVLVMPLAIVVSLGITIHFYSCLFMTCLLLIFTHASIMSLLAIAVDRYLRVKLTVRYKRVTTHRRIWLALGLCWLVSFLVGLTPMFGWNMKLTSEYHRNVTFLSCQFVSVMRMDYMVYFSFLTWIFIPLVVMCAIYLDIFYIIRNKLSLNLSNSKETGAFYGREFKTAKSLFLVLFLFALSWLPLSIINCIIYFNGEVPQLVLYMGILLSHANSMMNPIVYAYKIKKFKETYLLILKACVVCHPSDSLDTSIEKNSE
- Method: Displacement [3H]NECA from adenosine A3 receptor in human HeLa cell membranes at 1 uM incubated for 180 mins by scintillation counting method relative to control
Give the number; % is assumed, so skip it.

- Molecule: "CC1=C(C(=O)OC(C)C)C(c2ccc(C)o2)n2c(nc3ccccc32)N1 (racemic)"
  Quantity Unit: "%"
  inhibition: 1
- Molecule: "CCOC(=O)C1=C(C)Nc2nc3ccccc3n2C1c1ccon1 (racemic)"
  Quantity Unit: "%"
  inhibition: 3
- Molecule: "CCOC(=O)C1=C(C)Nc2nc3ccccc3n2C1c1cc[nH]c1 (racemic)"
  Quantity Unit: "%"
  inhibition: 1
- Molecule: "CCOC(=O)C1=C(C)Nc2nc3ccccc3n2C1c1ccccc1 (racemic)"
  Quantity Unit: "%"
  inhibition: 15
- Molecule: "CCOC(=O)C1=C(C)Nc2nc3ccccc3n2C1c1ccc[nH]1 (racemic)"
  Quantity Unit: "%"
  inhibition: 9
- Molecule: "CCOC(=O)C1=C(C)Nc2nc3ccccc3n2C1c1cnsc1 (racemic)"
  Quantity Unit: "%"
  inhibition: 14

// fetch Adenosine receptor A3 (Homo sapiens) inhibition for CCOC(=O)C1=C(C)Nc2nc3ccccc3n2C1c1cncs1 (racemic) 1

What about this molecule? CCOC(=O)C1=C(C)Nc2nc3ccccc3n2C1c1cnoc1 (racemic) 13

And then CC1=C(C(=O)OC(C)C)C(c2cscn2)n2c(nc3ccccc32)N1 (racemic) , what is it? 18

Proceed to CC1=C(C(=O)OC(C)C)C(c2cn[nH]c2)n2c(nc3ccccc32)N1 (racemic) 6

Consider next the molecule CC1=C(C(=O)OC(C)C)C(c2cncs2)n2c(nc3ccccc32)N1 (racemic) in the same way. 5

For `CCOC(=O)C1=C(C)Nc2nc3ccccc3n2C1` then? 9

Next entry: CCOC(=O)C1=C(C)Nc2nc3ccccc3n2C1c1ccno1 (racemic) 11

Now the molecule CC1=C(C(=O)OC(C)C)C(c2ncc[nH]2)n2c(nc3ccccc32)N1 (racemic) 2

# iterate: CCOC(=O)C1=C(C)Nc2nc3ccccc3n2C1c1c[nH]cn1 (racemic) 3

Also CCOC(=O)C1=C(C)Nc2nc3ccccc3n2C1c1ncco1 (racemic) ? 10
